system-name: MAL2 (GFP-MAL2) (Homo sapiens, UniProt Q969L2)
Construct: GFP fusion (GFP-MAL2) transiently expressed in HEK293T, diluted cell lysate, not purified
Sequence (Q969L2 whole entry, the tested form may be a part): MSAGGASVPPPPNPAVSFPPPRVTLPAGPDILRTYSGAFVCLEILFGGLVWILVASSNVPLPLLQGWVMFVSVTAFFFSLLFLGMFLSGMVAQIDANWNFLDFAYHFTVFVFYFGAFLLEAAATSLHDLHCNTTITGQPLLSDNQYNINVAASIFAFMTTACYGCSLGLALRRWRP
method: microscale thermophoresis, GFP-MAL2 in HEK293T lysate
outcome-measure: pKd
pKd here is simply -log10 of the concentration when that concentration is written in mol/L.

Endpoint output: pKd of `Fc1ccc(-c2cncc(CNC[C@H]3CCc4ccccc4O3)c2)cc1` . Value? 4.44
